target: HCV RNA-dependent RNA polymerase (NS5B protein) (Hepatitis C virus genotype 1b, UniProt P26663); construct: The cDNA encoding the entire NS5B protein of HCV-Bk strain, genotype 1b; initiator Met (ATG added before the NS5B coding region) (N); test: HCV RNA-dependent RNA polymerase assay (in vitro RdRp assay, heteropolymeric RNA template); settings: purified recombinant NS5B 200 ng; competing NTP at twice Km, other NTPs 100 μM; 2 h at 22° C.; triphosphate form tested
Sequence (P26663 2420-3010): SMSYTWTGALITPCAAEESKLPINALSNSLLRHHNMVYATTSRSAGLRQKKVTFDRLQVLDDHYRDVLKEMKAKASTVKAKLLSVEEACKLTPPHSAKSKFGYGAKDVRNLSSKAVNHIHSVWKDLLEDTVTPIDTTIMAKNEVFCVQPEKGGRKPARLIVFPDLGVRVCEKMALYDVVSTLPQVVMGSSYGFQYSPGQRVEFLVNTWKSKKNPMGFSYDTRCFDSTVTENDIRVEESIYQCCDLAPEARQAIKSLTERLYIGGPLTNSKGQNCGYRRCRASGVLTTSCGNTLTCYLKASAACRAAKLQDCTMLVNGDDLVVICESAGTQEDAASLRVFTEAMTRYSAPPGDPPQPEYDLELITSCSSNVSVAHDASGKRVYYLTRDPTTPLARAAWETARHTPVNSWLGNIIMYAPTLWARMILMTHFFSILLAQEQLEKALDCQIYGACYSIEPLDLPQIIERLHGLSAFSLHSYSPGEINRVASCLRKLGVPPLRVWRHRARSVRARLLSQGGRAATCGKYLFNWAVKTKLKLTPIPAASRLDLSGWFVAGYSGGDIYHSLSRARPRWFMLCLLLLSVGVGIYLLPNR
Assign labels as follows, please: met for IC50 below 3 µM; not met for IC50 equal to or exceeding 3 µM.

molecule: Nc1nc2c(ncn2[C@@H]2O[C@H](COP(=O)(O)OP(=O)(O)OP(=O)(O)O)C[C@H]2O)c(=O)[nH]1 [COMPOUND#12, 3′-deoxyguanosine-5′triphosphate]
classification: met
--
molecule: Nc1ccn([C@@H]2O[C@H](COP(=O)(O)OP(=O)(O)OP(=O)(O)O)C[C@H]2O)c(=O)n1 [COMPOUND#2, 3′-deoxycytidine-5′triphosphate]
classification: met
--
molecule: O=c1ccn([C@@H]2O[C@H](COP(=O)(O)OP(=O)(O)OP(=O)(O)O)C[C@H]2O)c(=O)[nH]1 [COMPOUND#6, 3′-deoxyuridine-5′triphosphate]
classification: met
--
molecule: Cc1cn([C@H]2CC[C@@H](COP(=O)(O)OP(=O)(O)OP(=O)(O)O)O2)c(=O)[nH]c1=O [COMPOUND#10, 3′-deoxythymidine-5′triphosphate]
classification: not met
--
molecule: CC(=O)Nc1nc2c(ncn2[C@@H]2O[C@H](COP(=O)(O)OP(=O)(O)OP(=O)(O)O)C[C@H]2O)c(=O)[nH]1
classification: not met
--
molecule: O=c1[nH]c(=O)n([C@@H]2O[C@H](COP(=O)(O)OP(=O)(O)OP(=O)(O)O)C[C@H]2O)cc1Br [COMPOUND#30, 5-Bromo-3′-deoxyuridine-5′triphosphate]
classification: met
